Target: AKT (Homo sapiens, UniProt Q9Y243)
Construct: Kinases are expressed as either kinase domains or full length constructs; made in house
Sequence (Q9Y243 whole entry, the tested form may be a part): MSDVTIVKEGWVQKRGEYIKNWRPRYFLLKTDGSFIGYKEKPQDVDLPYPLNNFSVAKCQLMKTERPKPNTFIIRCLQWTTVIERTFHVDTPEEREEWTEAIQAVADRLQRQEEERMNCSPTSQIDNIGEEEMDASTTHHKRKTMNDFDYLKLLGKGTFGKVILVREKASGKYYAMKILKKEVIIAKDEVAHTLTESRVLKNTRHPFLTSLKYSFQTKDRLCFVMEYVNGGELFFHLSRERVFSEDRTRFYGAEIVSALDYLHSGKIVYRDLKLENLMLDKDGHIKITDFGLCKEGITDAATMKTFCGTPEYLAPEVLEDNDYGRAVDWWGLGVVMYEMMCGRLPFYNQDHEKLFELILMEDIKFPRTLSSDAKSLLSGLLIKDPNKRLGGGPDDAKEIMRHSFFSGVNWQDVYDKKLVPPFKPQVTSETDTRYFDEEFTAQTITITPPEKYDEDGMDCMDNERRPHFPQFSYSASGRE
Experiment: Kinase inhibition assay (33P transfer), AKT
Type: biochemical
Conditions: Table 2, class symbols A-E; read-out: AKT3-1
Excerpt: The inhibitor compounds described herein are screened in the following manner. […] Kinases are expressed as either kinase domains or full length constructs fused to glutathione S-transferase (GST) or polyHistidine tagged fusion proteins in either E. colior Baculovirus-High Five expression systems. […]
Each item that follows carries a reported IC50.

Recorded results for 3 molecules are shown here.
Query string: Supply IC50 measured with AKT (Homo sapiens, UniProt Q9Y243) for Cc1ccc2c(c1)CCCN2c1ncnc(Nc2cccc(Cc3nnn[nH]3)c2)n1 [Compound 635] .
Result string: > 11.3 µM

Query string: Supply IC50 measured with AKT (Homo sapiens, UniProt Q9Y243) for Fc1ccc(CNc2ncccc2-c2ncnc(Nc3cccc(Cn4ccnn4)c3)n2)cc1 [Compound 1102] .
Result string: > 9.92 µM

Query string: Supply IC50 measured with AKT (Homo sapiens, UniProt Q9Y243) for COc1ccc(Nc2ncnc(N(C)C3CCCCC3)n2)cc1OC [Compound 796] .
Result string: > 13.1 µM

Next:
Query string: Supply IC50 measured with AKT (Homo sapiens, UniProt Q9Y243) for COc1cc(Nc2ncnc(-c3cccnc3N[C@H](C)c3ccccc3)n2)cc(OC)c1OC [Compound 1110] .
Result string: > 9.81 µM

Reference source: patent US7074789B2
